assay: Aqueous solubility in PBS, pH 7.4; format: physicochemical; details: phosphate buffered saline, pH 7.4, aqueous buffer, thermodynamic from solid, pH 7.4 phosphate buffered saline, 24 hours, amorphous or crystalline material; read-out: Aqu. Solubility
metric: solubility at 24 h (µg/mL)

>>> value_measured("C#C[C@]1(COC(=O)[C@H](C)c2ccccc2)O[C@@H](n2ccc3c(N)nc(Cl)nc32)C[C@@H]1O")
72
>>> value_measured("C#C[C@]1(COC(=O)OCc2ccccc2)O[C@@H](n2ccc3c(N)nc(Cl)nc32)C[C@@H]1O")
66

P = C#C[C@]1(CO)O[C@@H](n2ccc3c(N)nc(Cl)nc32)C[C@@H]1OC(=O)c1ccccn1
Q = C#C[C@]1(COC(=O)OCc2oc(=O)oc2C)O[C@@H](n2ccc3c(N)nc(Cl)nc32)C[C@@H]1O
Asked: Of the two listed items, which has the higher solubility at 24 h? First: P Second: Q Which one? Tell me its label.
Given back: Q
(Q: 229 µg/mL, P: 68 µg/mL)
